Tested on: NCI-H522 lung
procedure-details: NCI tumour cell line growth inhibition, 48 h

{"compound": "Cc1cc(N(CCC#N)CCC#N)ccc1/C=C\\C(=O)Nc1ccccc1", "TGI": "> 100 µM"}
{"compound": "N=C(N)N=Nc1ccc(NN=C(N)N)c2c1ncc1c2nc2sccn21", "TGI": "> 100 µM"}
{"compound": "COc1ccc(-c2cc(=O)c3c(OC)cccc3o2)c(OC)c1OC", "TGI": "> 100 µM"}
{"compound": "O=c1c2cc([N+](=O)[O-])ccc2[nH]n1Cc1ccccn1", "TGI": "> 100 µM"}
{"compound": "O=C(O)CNC(=O)C(CS)Cc1ccccc1 (stereo unspecified)", "TGI": "> 25 µM"}
{"compound": "COc1cc(C[C@@H](C)N)cc(OC)c1", "TGI": "> 100 µM"}
{"compound": "CCOC(=O)Nn1c(C)nnc1CC#N", "TGI": "> 100 µM"}
{"compound": "c1ccc2c(c1)nc1n2sc2nc3ccccc3n21", "TGI": "> 100 µM"}
{"compound": "Cn1c(=O)[nH]c2nccnc2c1=O", "TGI": "> 10 µM"}
{"compound": "Clc1ccc(-c2cc(-c3cc(-c4ccc(Cl)cc4)n[nH]3)[nH]n2)cc1", "TGI": "> 100 µM"}
{"compound": "CC1CC(C)CC(NC2=NCCO2)C1 (stereo unspecified)", "TGI": "> 100 µM"}

====

Test system: CCRF-CEM leukemia
procedure-details: NCI tumour cell line growth inhibition, 48 h
reported-metric: TGI

{"smiles-code": "COc1cc(NCCCCCN=C(N)N)c2ncccc2c1", "recorded-measurement": "> 74.3 µM"}
{"smiles-code": "O=C(NC(=S)Nc1ccccc1)c1ccc([N+](=O)[O-])cc1", "recorded-measurement": "> 100 µM"}
{"smiles-code": "Cc1ccc([N+](=O)[O-])cc1S(=O)(=O)Nc1ccc(C(=O)/C=C/c2cccs2)cc1", "recorded-measurement": "> 100 µM"}

====

Test system: NCI-H23 lung
procedure-details: NCI tumour cell line growth inhibition, 48 h
Reported TGI is given for each of the following compounds.
reported-metric: TGI

{"compound": "COc1ccc(C(N)=O)c(OC)c1OCc1ccccc1", "recorded-measurement": "> 100 µM"}
{"compound": "O=C1CC(=O)NC(=NN2C(=O)CSC2c2ccccc2)N1 (stereo not given)", "recorded-measurement": "> 100 µM"}
{"compound": "CN1CCN([C@H]2C[C@H]3[C@@H]4CC=C5C[C@@H](N6CCCC6)CC[C@]5(C)[C@H]4CC[C@]3(C)[C@H]2O)CC1", "recorded-measurement": "> 100 µM"}
{"compound": "C[N+](C)(CCNC(=O)c1cccc2cc3ccccc3nc12)Cc1ccc([N+](=O)[O-])cc1", "recorded-measurement": "> 100 µM"}
{"compound": "c1ccc2c(c1)nc1n2sc2nc3ccccc3n21", "recorded-measurement": "> 100 µM"}
{"compound": "COc1cc(OC)cc(-n2c(N)c(C#N)c3ccc([N+](=O)[O-])cc3c2=O)c1", "recorded-measurement": "> 100 µM"}
{"compound": "CCOC(=O)[C@H]1O[C@@H]1C(=O)N[C@@H](CC(C)C)C(=O)NCCc1ccc(O)cc1", "recorded-measurement": "> 100 µM"}
{"compound": "COc1cc(C2SC(N)=Nc3c2c(C)nn3C(=O)c2ccc(Cl)cc2)cc(OC)c1OC (stereo not given)", "recorded-measurement": "> 10 µM"}
{"compound": "CCOP(=O)(O)C(Nc1ccc(N=Nc2ccccc2)cc1)c1ccc(C(Nc2ccc(N=Nc3ccccc3)cc2)P(=O)(O)OCC)cc1 (stereo not given)", "recorded-measurement": "64.2 µM"}
{"compound": "Nc1nc2c(c3ncccc13)C(c1cccc(Br)c1)Cc1ncccc1-2 (stereo not given)", "recorded-measurement": "33 µM"}
{"compound": "COc1cc(C[C@@H](C)N)cc(OC)c1", "recorded-measurement": "> 100 µM"}
{"compound": "CCCC1C(CC)C(NC)C(C#N)(C#N)C1(C#N)C#N (stereo not given)", "recorded-measurement": "46.8 µM"}
{"compound": "O=c1c2cc([N+](=O)[O-])ccc2[nH]n1Cc1ccccn1", "recorded-measurement": "> 100 µM"}
{"compound": "O=C1OCC=C1COC1OC(CO)C(O)C(O)C1O (stereo not given)", "recorded-measurement": "> 100 µM"}
{"compound": "CN(C)CCCOc1ccc(OCCCN(C)C)c2c1C(=O)c1ccccc1C2=O", "recorded-measurement": "4.27 µM"}
{"compound": "O=C(O)/C(=C/C(=O)c1ccc(Cl)cc1)NNc1ccc([N+](=O)[O-])cc1[N+](=O)[O-]", "recorded-measurement": "> 100 µM"}
{"compound": "CCOC(=O)C1=C(NC(C)(C)C)OC/C1=N\\NC(=O)Cc1ccccc1", "recorded-measurement": "> 100 µM"}
{"compound": "O=C1/C(=C\\c2ccccc2)C2/C(=C\\c3ccccc3)C(=O)/C(=C\\c3ccccc3)C2/C1=C\\c1ccccc1 (stereo not given)", "recorded-measurement": "3.78 µM"}
{"compound": "CN1C2CCC1CN(CCOC(c1ccc(F)cc1)c1ccc(F)cc1)C2", "recorded-measurement": "> 100 µM"}
{"compound": "O=C1Nc2cc(Cl)ccc2/C1=C\\c1c(-c2ccc(F)cc2)nc2ccccn12", "recorded-measurement": "4.45 µM"}
{"compound": "CCCS(=O)(=O)Nc1ccc(F)c(C(=O)c2c[nH]c3ncc(Cl)cc23)c1F", "recorded-measurement": "> 91.6 µM"}
{"compound": "O=C1C2C(C(=O)N1c1ccccc1)C1(Br)c3ccccc3C2(Br)C2C(=O)N(c3ccccc3)C(=O)C21 (stereo not given)", "recorded-measurement": "> 31.6 µM"}
{"compound": "CNC(=S)Nc1sc2c(c1C#N)CCCC2", "recorded-measurement": "> 75 µM"}
{"compound": "CC(C)(CN1CCCCC1)C(/C=C/c1ccc(Cl)c(Cl)c1)=N\\NC(=O)N/N=C(/C=C/c1ccc(Cl)c(Cl)c1)C(C)(C)CN1CCCCC1", "recorded-measurement": "3.4 µM"}
{"compound": "CCN(CC)CCOc1ccc(N2C(=O)c3cccc4cc([N+](=O)[O-])cc(c34)C2=O)cc1", "recorded-measurement": "26.5 µM"}

Origin of values: PubChem BioAssay (NCI)
